Molecular target: T1, PDZD2_2, O15018
T1 sequence (O15018 329-429, limits assumed, looked up): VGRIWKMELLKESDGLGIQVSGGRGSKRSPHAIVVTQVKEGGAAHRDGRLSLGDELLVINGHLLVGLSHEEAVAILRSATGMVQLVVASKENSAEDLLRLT
Experiment: holdup assay
Set-up: key: below the threshold = too weak to quantify, mostly under pKd 3.1 to 4
Details: plain residues with an end cap or a label only (N-terminal biotin on a linker: ado-ado)
RESULT TYPE: pKd

# BINDER, OBSERVED VALUE
records = [
    ("NNNVVKVDSV [MTNR1A, P48039]", 3.98),
    ("QKAPTKEFYA [SDC2, P34741]", "below the threshold"),
    ("EDPRVEVTQF [SLC22A9, Q8IVM8]", "below the threshold"),
]
